experiment: reduction of polyQ htt aggregates in cells – imaging, exon1htt(103Q)mCFP cells, high-content imaging, primary screen (AID 483); conditions: exon1htt(103Q)mCFP cell line, aggregate imaging, at 2 µM; stronger effect = higher value;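 also: compound exposure lasted 3 days before fixation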
experimental_readout: inhibition of aggregation (%)
Give the number; % is assumed, so skip it.

Answered examples (5):
COc1ccc(C(NC(=O)c2ccco2)c2ccc(OC)c(OC)c2)cc1 (stereo unspecified) | -4.2
Cc1cnc(C(=O)Nc2ccc(N3CCOCC3)cc2)cn1 | -7.7
CC(=O)Nc1ccccc1-c1nc2ccc(C(=O)N3CCN(c4ccccc4)CC3)cc2[nH]c1=O | -6.6
CCOC(=O)CSc1nnc(-c2cccnc2)n1Cc1ccccc1 | 10.1
CC(C)(C)c1ccc(-c2nnc(SCCC#N)n2C2CCCC2)cc1 | 10.8

INPUT: Check the records and state inhibition of aggregation for CC1(C)CC(=O)C=C(Nc2ccc(F)cc2)C1
OUTPUT: 3.9

###

assay: inhibitors of TNFa-induced NFkB p65 translocation, primary screen, imaging, HUVEC, MLSMR starter and 10KST1 sets (AID 438); conditions: HUVEC TNFa-induced p65 nuclear translocation; at 2 µM, stronger effect = higher value, 0% TNFa-plus-vehicle, 100% no-TNFa wells;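 also: compound added about 3h40 before a 20 min TNFalpha stimulation; signal is the nuclear over cytoplasmic p65 intensity ratio per well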
Activity calls are given as the source filed them.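 The calls were made as follows: active = inhibition above 20% together with a positive visual image hit; inconclusive = visual image hit but inhibition not above 20%; inactive = no visual image hit.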
// reported inhibition for each item listed

Below, each entry is followed by its recorded inhibition result.
Cc1[nH]c2ccccc2c(=O)c1CN(C)Cc1ccccc1 | 2.9% (inactive)
CC(C(=O)c1ccccc1)n1cnc2ccccc2c1=O (stereo unspecified) | 6.4% (inactive)
CCC1C(=O)n2nc(-c3ccccc3)cc2N=C1C (stereo unspecified) | 0% (inactive)

INPUT: Identify inhibition associated with the compound O=C(NCc1ccco1)c1cccc(S(=O)(=O)N2CCCCC2)c1
OUTPUT: -3.6% (inactive)

INPUT: Retrieve inhibition measured for CN(C)S(=O)(=O)c1ccc(C(=O)N2CCCC2c2nc3ccccc3s2)cc1 (stereo unspecified) and print it.
OUTPUT: -9.4% (inactive)

INPUT: Return inhibition for the following compound: COc1cc(NC(=O)CC(C)C)ccc1NC(=O)c1ccco1
OUTPUT: -6% (inactive)

INPUT: Fill in inhibition for record CCC(=O)Nc1cccc(Br)c1
OUTPUT: 2.9% (inactive)

INPUT: For the compound Cc1ccc(S(=O)(=O)N2CCN(c3nc(C)nc4sc(C)c(C)c34)CC2)cc1 , give its reported inhibition.
OUTPUT: 10.5% (inactive)

INPUT: Let me know recorded inhibition for CS(=O)(=O)Nc1ccc(C(=O)NCCc2ccccc2)cc1 , thanks.
OUTPUT: -2% (inactive)

INPUT: Identify the reported inhibition for the following entry. COCCCNC(=O)CSc1nc2ccc(N3CCOCC3)cc2c(=O)n1CCc1ccccc1
OUTPUT: -1.6% (inactive)

INPUT: Provide only the value of recorded inhibition for O=C(CN1C(=O)c2ccccc2S1(=O)=O)Nc1ccc(S(=O)(=O)N2CCCCCC2)cc1
OUTPUT: -2.6% (inactive)

INPUT: Name the recorded inhibition of the item CCOC(=O)c1ccccc1NC(=O)COC(=O)C1=COCCO1 in your answer.
OUTPUT: -3.1% (inactive)

INPUT: Given the compound O=C1C2C3C=CC(C3)C2C(=O)N1Cc1ccccc1 (stereo unspecified) , write its reported inhibition.
OUTPUT: -9.2% (inactive)

INPUT: Give the measured inhibition for Cn1c(=O)oc2cc(S(=O)(=O)NC3CCN(Cc4ccccc4)CC3)ccc21
OUTPUT: -6.3% (inactive)

INPUT: Read the entry COc1ccc(N=C2C(=O)Nc3ccccc32)cc1 and write its reported inhibition.
OUTPUT: 2.4% (inactive)

INPUT: Fill in reported inhibition for this entry: Cc1ccc2occ(CN3CCN(c4ccccc4)CC3)c(=O)c2c1
OUTPUT: -0.8% (inactive)

###

# inhibition per entry
test: TLR3 IRF3 reporter activation blockers – cell-based, poly I:C stimulus, luciferase, 10K MLSCN set, primary screen (AID 602277); conditions: HEK293-TLR3 RL24 IRF3 luciferase reporter, at 10 µM, stronger effect = higher value
Calls of active or inactive are those of the source.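 Rule for the calls: active = inhibition of the reporter signal at or above 50%; inactive = inhibition below 50%.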

Previously resolved entries follow.
CC(=O)c1cccc(NC(=O)NCc2ccco2)c1 | -37.3% (inactive)
Cc1cc(C(=O)O)ccc1-n1c(C)ccc1C | 20% (inactive)
COc1ccc(-n2nnc3c(=O)n(C/C=C/c4ccccc4)cnc32)cc1 | 7.09% (inactive)

INPUT: Look up and report measured inhibition for this entry: Cc1ccc(CNC(=O)C2CCN(S(=O)(=O)c3cccs3)CC2)o1
OUTPUT: 5.31% (inactive)

INPUT: Hello, please tell me recorded inhibition for this one: CCCCCCNC(=O)c1c(N)n(/N=C/c2ccco2)c2nc3ccccc3nc12
OUTPUT: 8.29% (inactive)

###

molecular target: Alpha-2C adrenergic receptor (Homo sapiens); experiment: compounds altering alpha2C-coupled GIRK flux – cell-based, HEK293 alpha2C/GIRK1/2, thallium flux, primary screen (AID 624); settings: thallium flux BTC fluorescence, at 10 µM, actives lie on both sides;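 also: slope of fluorescence ratio to pre-addition baseline per second over 15 to 24 s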
experimental_readout: slope
Respond with the number and no other words.

Consider the reported slope for these compounds:
CCC(=O)Nc1cc(C(=O)NCC2CCCN2CC)c(OC)cc1N(C)C (stereo unspecified) | 0.00562
COc1ccccc1-c1nnc(SCC(=O)N2CC(C)CC(C)C2)o1 (stereo unspecified) | 0.00365
CCN(CCNC(=O)C1CCN(S(=O)(=O)c2cccc3cccnc23)CC1)c1ccccc1 | 0.00561
COc1ccc(CCNC(=O)c2cc(C(C)C)on2)cc1OC | 0.00632
O=C(NCC(=O)N(c1cccnc1)C(C(=O)NC1CCCCC1)c1cccnc1)c1ccco1 (stereo unspecified) | 0.00388

INPUT: Report slope under test system Alpha-2C adrenergic receptor (Homo sapiens) for Cc1cc(C(F)(F)F)c2c(C)nn(CCc3nn[nH]n3)c2n1 .
OUTPUT: 0.00523

###

biological target: Alpha-2C adrenergic receptor (Homo sapiens); assay: compounds altering alpha2C-coupled GIRK flux – cell-based, HEK293 alpha2C/GIRK1/2, thallium flux, primary screen (AID 624); settings: thallium flux BTC fluorescence, at 10 µM, actives lie on both sides;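 also: slope of fluorescence ratio to pre-addition baseline per second over 15 to 24 s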
Binary classification by slope, with 0.005 as an inclusive lower bound for condition met; all other cases are condition not met.

The examples below pair each entry with its known result.
Cc1ccc(S(=O)(=O)N2CCCC(c3nnc4n3-c3ccccc3SC4)C2)cc1 (configuration not stated) | condition not met
COc1ccc(NC(C)=O)cc1NC(=O)CN1CCN(c2ccccn2)CC1 | condition met
CCOC(=O)NC(=O)CSc1nnnn1-c1ccc(Cl)cc1 | condition met

INPUT: Confirm if slope reported for the compound COC(=O)c1ccccc1NC(=O)C12CCC(C)(C(=O)O1)C2(C)C (configuration not stated) is 0.005 or above.
OUTPUT: condition not met

INPUT: Does the compound Cc1ccccc1Cn1ccc(NC(=O)c2cnn3c(C(F)(F)F)cc(-c4ccco4)nc23)n1 have recorded slope that is 0.005 or more?
OUTPUT: condition not met

INPUT: Decide: is the reported value of slope for Cn1c(C(=O)NCCCN2CCN(c3ccc(F)cc3)CC2)cc2c(=O)n(C)c3ccccc3c21 equal to or greater than 0.005?
OUTPUT: condition met

INPUT: Check this compound for slope at or above 0.005: CC(C)CC(c1nnnn1C(C)(C)C)N1CCN(C2CCCC2)CC1 (configuration not stated)
OUTPUT: condition not met

INPUT: Check if slope >= 0.005 (inclusive). Item: COCCNC(=O)C(c1cccs1)N(C(=O)Cn1nnc2ccccc21)c1ccccc1 (configuration not stated)
OUTPUT: condition met

INPUT: Could you verify whether the entry CCNc1ccc(S(=O)(=O)C(F)(F)F)cc1NC(=O)C12CCC(CC1)C2 shows slope of no less than 0.005?
OUTPUT: condition not met

INPUT: Assess whether reported slope for CCC1CCCCN1CCCNC(=O)c1ccc(CS(=O)(=O)Cc2ccccc2F)o1 (configuration not stated) sits at 0.005 or higher.
OUTPUT: condition not met

INPUT: Reported slope at or above 0.005? CSc1nnc(-c2ccccc2)n1C
OUTPUT: condition met

###

experiment: endothelial E-selectin expression blockers – imaging, HUVEC, immunofluorescence, MLSMR starter and 10KST1 sets, primary screen (AID 487); conditions: HUVEC TNFalpha-induced E-selectin immunofluorescence imaging, at 2 µM; measured here: cell number, toxicity;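 also: 100% = median nuclei count of all wells on the same plate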
experimental_readout: nuclei count (%)
The reply should be a number in %, with the unit left off.

CC1CCCCC1NC(=O)Cn1ncc2ccccc21 (stereo unspecified) | 123
O=C(O)Cn1cc(C(=O)c2ccco2)c2ccccc21 | 104

INPUT: Supply nuclei count value. Item: OCCn1c(CSc2nnc(-c3ccco3)n2-c2ccccc2)nc2ccc(Cl)cc21
OUTPUT: 90.8

INPUT: Query nuclei count for COCCNC(=O)C(C)N(c1ccc(Oc2ccccc2)cc1)S(C)(=O)=O (stereo unspecified)
OUTPUT: 111

INPUT: Report nuclei count, nothing else, for this molecule: O=C1NC(c2ccco2)Nc2ccccc21 (stereo unspecified)
OUTPUT: 107

INPUT: Indicate its recorded nuclei count; the molecule in question is Nc1c(C(=O)NCCc2ccccc2)nnn1Cc1ccccc1
OUTPUT: 98.3

INPUT: Using known records, supply nuclei count for Cc1c(CNCc2cccs2)c(C(=O)O)c(C)n1Cc1ccccc1
OUTPUT: 101

INPUT: For the molecule CCn1cc(C(=O)NCc2ccccc2OC)c(=O)c2cc(S(=O)(=O)N(C)C)ccc21 , give its reported nuclei count.
OUTPUT: 113

Recorded values, source PubChem BioAssay.
